Where these numbers come from: the supplement of paper PMC12042874

protocol_text: amyloid nucleation score (Sup35N fusion, yeast selection) (log enrichment); library NNK1; higher = more nucleation; inactive = no reads after selection;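 further: zero at mode of non-aggregating sequences after 7 days selection at 30°C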
Threshold check on amyloid nucleation score: at or above 0.4 gives class 1, strictly below gives class 0.

| substance | cat |
| --- | --- |
| ILYTSTVGTQLPKDGLDC | class 1 |
| YKNFKFSDDTRMFVNNVSVY | class 1 |
| KRLGWSSVFRLARVERVLRS | class 0 |
| SLILFV | class 1 |
| WVWSLWYSRDGVKVFFDRQS | class 0 |
| PMTTWYSVFCAEFL | class 1 |
| SLQPVYAATCSSFHYSFFAG | class 1 |
| VFFSKI | class 1 |
| CFNVSVSGEDSFLFGYGWHI | class 0 |
| SLYTKWKSILPNWVFVCIAL | class 0 |
| ITYIRHYCKPVVL | class 1 |
| DLFICSSARAVNKIFRVLHA | class 1 |
| YMLRYVAWCLGPAL | class 1 |
| HSVFVMVCSSCMVG | class 1 |
| VSCWLQISDLRAVAWPLRSF | class 1 |
| LRLPSRAFEGFRREAAWGST | class 1 |
| LHRRSDNGESFWTEGSITFV | class 0 |
| VIHVSTYDSGVLPLKEDGTF | class 0 |
| SPKPYFSRKYVIKIHKRS | class 0 |
| WWYQCHCSYYHAIGITSVQE | class 1 |
| NGWILNLVWTVKNTSMTLIW | class 1 |
| SVPITLIGALGVKM | class 0 |
| TDIFCP | class 0 |
| VAGFPVEDRLRQISSWAVSG | class 0 |
| ATGARLKLCQELRSTLGMLT | class 0 |
| RGLGWHHRLSCYRSAGFARA | class 0 |
| SCSLITQGFRYPWLIYHRCY | class 1 |
| TSHPFLLQFMDDPFELSLAQ | class 0 |
| HIENNSLKSDIVGRRGVRLS | class 0 |
| HLPTKFLGVPNKLAYSTAPV | class 0 |
| VFALMRISSNSMSKCQFVCD | class 0 |
| YPGQARNRVLCCGWKFFIDQ | class 1 |
| MLLIRNFQFTTLFVCHFSAE | class 0 |
